Recorded values, source paper PMC3165048.

attribute-measured: IC50 (µM)
Give the value, in units of µM, as a plain number.

Entry O=C1C(Cl)=C(Cl)C(=O)c2ccccc21 under MtMetAP1c (Mycobacterium tuberculosis) had IC50 of 6.6
